Ref: ChEMBL document CHEMBL4321884

Biological target: UniProtKB P02768
Sequence (P02768 whole entry): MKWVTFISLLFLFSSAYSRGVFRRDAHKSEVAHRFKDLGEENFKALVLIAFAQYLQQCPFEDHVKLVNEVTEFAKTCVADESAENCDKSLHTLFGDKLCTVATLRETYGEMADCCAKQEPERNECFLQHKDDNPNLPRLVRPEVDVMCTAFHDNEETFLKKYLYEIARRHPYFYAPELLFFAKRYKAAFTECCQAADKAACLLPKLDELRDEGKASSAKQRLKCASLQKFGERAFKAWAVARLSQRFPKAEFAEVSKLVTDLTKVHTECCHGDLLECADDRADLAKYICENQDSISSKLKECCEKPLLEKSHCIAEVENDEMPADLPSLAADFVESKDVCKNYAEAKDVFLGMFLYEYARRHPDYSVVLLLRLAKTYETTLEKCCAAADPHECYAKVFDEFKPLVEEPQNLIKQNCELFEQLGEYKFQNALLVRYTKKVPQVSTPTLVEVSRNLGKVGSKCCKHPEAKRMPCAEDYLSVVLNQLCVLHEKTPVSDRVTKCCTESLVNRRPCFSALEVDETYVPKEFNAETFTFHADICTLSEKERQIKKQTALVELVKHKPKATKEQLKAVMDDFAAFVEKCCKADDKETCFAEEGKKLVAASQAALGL
Test: Protein binding in human serum albumin after 4.5 hrs by LC-MS based rapid equilibrium dialysis method
Format: ADME
Conditions: read-out: PB (converted)
// reported fraction unbound at 4.5 h for each item listed
Format: numeric value only, no unit, no commentary.

compound	fraction unbound at 4.5 h
COc1cc(Cc2cnc(N)nc2N)cc(OC)c1OC [TRIMETHOPRIM]	0.969
CNC(=O)Oc1ccc2c(c1)[C@]1(C)CCN(C)[C@@H]1N2C [PHYSOSTIGMINE]	0.903
NC(N)=Nc1nc(CSCCC(N)=NS(N)(=O)=O)cs1 [FAMOTIDINE]	0.956
COC1=C(C(=O)Nc2ncc(C)s2)N(C)S(=O)(=O)c2ccccc21	0.341
CCCCC1(C)C(=O)N(c2ccccc2)N(c2ccccc2)C1=O	0.359
CN1C(C(=O)Nc2ccccn2)=C(O)c2sccc2S1(=O)=O [TENOXICAM]	0.032
Cc1cnc(NC(=O)C2=C(O)c3ccccc3S(=O)(=O)N2C)s1 [MELOXICAM]	0.033
CN1C(C(=O)Nc2ccccn2)=C(O)c2sc(Cl)cc2S1(=O)=O [LORNOXICAM]	0.02

The record that follows has no fraction unbound at 4.5 h shown yet.
The compound `CCCCc1c(OC)n(-c2ccccc2)n(-c2ccccc2)c1=O` , tested on UniProtKB P02768, showed fraction unbound at 4.5 h of 0.071
